System: human serum protein
TEST_METHOD_NOTES: Non-specific adsorption of low-pI TM2 to human serum protein-immobilized magnetic beads
Format: binding
CONDITION_SET: wild type TM2 = 100
MEASURED_METRIC: Non-specific binding of serum protein (%)
# unit: % | format: bare number

>>> assay_value("TM2 K73Q: TM2 mutant in which lysine at position 73 was replaced with glutamine; SEQ ID NO: 6 (protein, Synthetic TM2 K73Q) MSDVQSSLTGTWYNELNSKMELTANKDGTLTGKYLSKVGDVYVPYPLSGRYNLQPPAGQGVALGWAVSWENSQIHSATTWSGQFFSESSPVILTQWLLSSSTARGDVWESTLVGNDSFTKTAPTEQQIAHAQLHCRAPRLK")
55
>>> assay_value("TM2 R104EK141E: TM2 mutant, arginine 104 and lysine 141 each replaced with glutamic acid; SEQ ID NO: 16 (protein, Synthetic TM2 R104EK141E) MSDVQSSLTGTWYNELNSKMELTANKDGTLTGKYLSKVGDVYVPYPLSGRYNLQPPAGQGVALGWAVSWENSKIHSATTWSGQFFSESSPVILTQWLLSSSTAEGDVWESTLVGNDSFTKTAPTEQQIAHAQLHCRAPRLE")
25

Given item TM2 K26A: TM2 mutant in which lysine at position 26 was replaced with alanine; SEQ ID NO: 4 (protein, Synthetic TM2 K26A) MSDVQSSLTGTWYNELNSKMELTANADGTLTGKYLSKVGDVYVPYPLSGRYNLQPPAGQGVALGWAVSWENSKIHSATTWSGQFFSESSPVILTQWLLSSSTARGDVWESTLVGNDSFTKTAPTEQQIAHAQLHCRAPRLK , the value recorded as its Non-specific binding of serum protein (%) is 68
